src = PubChem BioAssay AID652154

assay: PAX8 transcriptional activity inhibition in RMG-I – RMG-I cells, luciferase, single concentration, primary screen (AID 652154); conditions: RMG-I TPO-luciferase reporter, SteadyGlo, 24 h; at 12.6 µM; active compounds read high;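 further: luciferase light reporting Pax8 driven TPO promoter activity; plate controls were median of neutral control wells for no effect and mitoxantrone controls for full effect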
Hit rate of the full screen: of about 360,000 compounds, about 4,200 (1.2%) were called active. The sample as a whole holds a higher share of actives than the screen did.
inhibition values, listed per item

- Test Smiles: "COc1ccc(CNC(=O)CCCn2nc(C)c([N+](=O)[O-])c2C)cc1"
  inhibition (%): 2.46
- Test Smiles: "Cc1nn(CC(=O)Nc2ccc(N(C)C)cc2)c(C)c1[N+](=O)[O-]"
  inhibition (%): 13.9
- Test Smiles: "N#Cc1cccc(-c2ccc([C@H]3[C@@H](CO)N4CCCCN(C(=O)Nc5ccccc5)C[C@H]34)cc2)c1"
  inhibition (%): -12.5
- Test Smiles: "Cc1ccc(Oc2cc(NC(=O)CCCn3nc(C)c([N+](=O)[O-])c3C)cc([N+](=O)[O-])c2)cc1"
  inhibition (%): 84.6
- Test Smiles: "O=C(NCCc1ccccc1)c1cccc(NC(=O)c2ccccc2)c1"
  inhibition (%): -77.4
- Test Smiles: "CN(C)CCNC(=O)c1cccc(-c2cnc3c(NC=O)cc(-c4cccc(C(F)(F)F)c4)cn23)c1"
  inhibition (%): 109
- Test Smiles: "CC(=O)c1cccc(-c2cnc3c(NC=O)cc(-c4cccc(C(=O)N(C)C)c4)cn23)c1"
  inhibition (%): 12.7
- Test Smiles: "CCCC#Cc1cnc2c(c1)C(=O)N([C@@H](C)CO)C[C@@H](C)[C@@H](CN(C)C(=O)c1ccccc1)O2"
  inhibition (%): 8.32
- Test Smiles: "Cc1cc(=O)c2ccc(NC(=O)c3ccccc3)cc2[nH]1"
  inhibition (%): -7.38
